experiment: Cyclic voltammetry of Fe(III)-FOXE derivative complexes (redox potential, Fe(II) stability constants); type: physicochemical; conditions: calculated from CV measurement, [L] = 2 × 10^–3 M, M:L 1:1, pH = 7, T = 25 °C
ASSAY_READOUT: logβFe(II)

O=C1CCN(O)C(=O)CCNC(=O)CCN(O)C(=O)CCNC(=O)CCN(O)C(=O)CCN1: 7.48
O=C1CCCN(O)C(=O)CCNC(=O)CCCN(O)C(=O)CCNC(=O)CCCN(O)C(=O)CCN1: 7.54
O=C1CCCCN(O)C(=O)CCNC(=O)CCCCN(O)C(=O)CCNC(=O)CCCCN(O)C(=O)CCN1: 9.12
O=C1CCCCCN(O)C(=O)CCCNC(=O)CCCCCN(O)C(=O)CCCNC(=O)CCCCCN(O)C(=O)CCCN1: 8.48
O=C1CCCCCN(O)C(=O)CCNC(=O)CCCCCN(O)C(=O)CCNC(=O)CCCCCN(O)C(=O)CCN1: 11.29

###

Test: Ligand protonation constants by potentiometric titration
Assay type: physicochemical
Details: [L] = 1·10^-3 M, T = 25°C, I = 0.1 M NaClO4
Method: Potentiometric titrations were performed using an automatic titrator system Titrando 905 (Metrohm) equipped with a 800 Dosino dosing unit and a microburet with a volume of 2 mL. […] The acid-base properties of investigated ligands were studied by potentiometric technique. The optimized logβ values defined by equations (S1) and (S2) were calculated using […] […] aConstants determined from potentiometric titrations. […]
# maps each entry to its protonation constant logβ, H2L + H+ ↔ H3L
ASSAY_READOUT: protonation constant logβ, H2L + H+ ↔ H3L

O=C1CCCCCN(O)C(=O)CCNC(=O)CCCCCN(O)C(=O)CCNC(=O)CCCCCN(O)C(=O)CCN1: 26.53(1)
O=C1CCCN(O)C(=O)CCNC(=O)CCCN(O)C(=O)CCNC(=O)CCCN(O)C(=O)CCN1: 27.71(1)
O=C1CCCCCN(O)C(=O)CCCNC(=O)CCCCCN(O)C(=O)CCCNC(=O)CCCCCN(O)C(=O)CCCN1: 27.79(1)
O=C1CCCCN(O)C(=O)CCNC(=O)CCCCN(O)C(=O)CCNC(=O)CCCCN(O)C(=O)CCN1: 27.64(1)
O=C1CCN(O)C(=O)CCNC(=O)CCN(O)C(=O)CCNC(=O)CCN(O)C(=O)CCN1: 27.62(2)

###

experiment: Ligand protonation constants by potentiometric titration; type: physicochemical; settings: [L] = 1·10^-3 M, T = 25°C, I = 0.1 M NaClO4
# maps each entry to its protonation constant logβ, L + H+ ↔ HL
ASSAY_READOUT: protonation constant logβ, L + H+ ↔ HL

O=C1CCN(O)C(=O)CCNC(=O)CCN(O)C(=O)CCNC(=O)CCN(O)C(=O)CCN1: 9.97(1)
O=C1CCCCCN(O)C(=O)CCCNC(=O)CCCCCN(O)C(=O)CCCNC(=O)CCCCCN(O)C(=O)CCCN1: 10.19(1)
O=C1CCCCCN(O)C(=O)CCNC(=O)CCCCCN(O)C(=O)CCNC(=O)CCCCCN(O)C(=O)CCN1: 9.86(1)
O=C1CCCCN(O)C(=O)CCNC(=O)CCCCN(O)C(=O)CCNC(=O)CCCCN(O)C(=O)CCN1: 9.93(1)
O=C1CCCN(O)C(=O)CCNC(=O)CCCN(O)C(=O)CCNC(=O)CCCN(O)C(=O)CCN1: 9.94(1)
